# EXPERIMENT SUMMARY: chemical genetic growth profiling, strain panel (AID 1159580);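 also: tested at 20 µM; growth read once vehicle control cultures reached saturation at 30 °C; lower values mean less growth of the strain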
# SETUP CONDITIONS: S. cerevisiae deletion strains, growth OD, locus YLR102C, strain apc9
The whole screen tested about 5,500 compounds, of which about 2,000 (36%) were called active. About 18% were inconclusive and are not listed. Rule as the data show it: active = normalized growth mostly below about 0.91 (no sharp cut-off); inconclusive = no clear call, values can overlap the other calls; inactive = mostly above about 0.92. The list shows a part of the results.
Reply using exactly one outcome from active, inactive

Prompt line: Hi, do you know how O=C(/C=C/c1ccccc1)c1c(O)cc(O)cc1O came out in this test?
Response line: inactive

Prompt line: Ok, now CC[C@H]1OC(=O)[C@H](C)[C@@H](O[C@H]2C[C@@](C)(OC)[C@@H](O)[C@H](C)O2)[C@H](C)[C@@H](O[C@@H]2O[C@H](C)C[C@H](N(C)C)[C@H]2O)[C@](C)(O)C[C@@H](C)/C(=N/OCOCCOC)[C@H](C)[C@@H](O)[C@]1(C)O
Response line: inactive

Cited source: PubChem BioAssay AID1159580
